Source of measurements: paper PMC10450164

# Assayed System: TFAP2B K276R (Homo sapiens, UniProt Q92481 219-457, K276R)
# Sequence (Q92481 219-457 K276R): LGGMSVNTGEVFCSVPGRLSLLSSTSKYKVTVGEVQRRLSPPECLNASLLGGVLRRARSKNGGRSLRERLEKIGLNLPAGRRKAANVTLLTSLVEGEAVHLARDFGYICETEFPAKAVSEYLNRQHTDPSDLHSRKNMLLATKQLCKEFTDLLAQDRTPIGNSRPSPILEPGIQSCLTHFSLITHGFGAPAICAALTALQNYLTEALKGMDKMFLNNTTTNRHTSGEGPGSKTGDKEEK
# Test: ITC

# Binder, Kd (nM)
records = [
    ("CGA (GCC(N3)GGC) (dsDNA) DNA 1: GTGCCCGAGGCAG DNA 2: CTGCCTCGGGCAC", 382),
]
